- Tested on: AncSZ;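 note: 11-residue human phosphosite peptides and single-mutation variants displayed on the E. coli surface, counted by deep sequencing, each peptide's frequency after selection divided by its frequency in the unselected input library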;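 note: frequency after pTyr selection over input frequency; kinase dosed for 20-30% of maximal phosphorylation in three min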
- experiment.notes: phosphorylation enrichment, bacterial display (enrichment ratio); higher = better substrate or ligand; peptides without Tyr show the background

[
  {
    "sequence.record": "LIEQAYDNLHE [PRPF8_Y871_P874L]",
    "target.entity": "AncSZ",
    "phosphorylation enrichment": 1.44
  },
  {
    "sequence.record": "HCHEGYVLHGA [SVEP1_Y2921_I2922V]",
    "target.entity": "AncSZ",
    "phosphorylation enrichment": 1.28
  },
  {
    "sequence.record": "KSVITYSPTTG [ITGB3BP_Y32]",
    "target.entity": "AncSZ",
    "phosphorylation enrichment": 0.49
  },
  {
    "sequence.record": "TWSSSYRSDRL [CRYBB1_Y131]",
    "target.entity": "AncSZ",
    "phosphorylation enrichment": 0.682
  },
  {
    "sequence.record": "ERIEFYELNKK [PMM2_Y145_D148N]",
    "target.entity": "AncSZ",
    "phosphorylation enrichment": 0.968
  },
  {
    "sequence.record": "VTDGKYAFKPK [GTF2E2_Y137_I133T]",
    "target.entity": "AncSZ",
    "phosphorylation enrichment": 0.491
  },
  {
    "sequence.record": "ATPKGYETDAS [OTC_Y223_P225T]",
    "target.entity": "AncSZ",
    "phosphorylation enrichment": 0.735
  },
  {
    "sequence.record": "QMRLRYLAAEE [CEP120_Y884]",
    "target.entity": "AncSZ",
    "phosphorylation enrichment": 1.11
  },
  {
    "sequence.record": "DNEALYDTCFR [TUBB2B_Y208_I210T]",
    "target.entity": "AncSZ",
    "phosphorylation enrichment": 2.34
  },
  {
    "sequence.record": "KAIMTYVFSFF [ACTN4_Y260_S262F_YF]",
    "target.entity": "AncSZ",
    "phosphorylation enrichment": 0.989
  },
  {
    "sequence.record": "CTTIRYNFMCN [TP53_Y234_H233R_YF]",
    "target.entity": "AncSZ",
    "phosphorylation enrichment": 0.948
  },
  {
    "sequence.record": "ISHVAYRVLGK [TRRAP_Y892]",
    "target.entity": "AncSZ",
    "phosphorylation enrichment": 0.634
  },
  {
    "sequence.record": "FPHVIYARLWR [SMAD4_Y95]",
    "target.entity": "AncSZ",
    "phosphorylation enrichment": 0.917
  },
  {
    "sequence.record": "NIFSFYLSRDP [CTSD_Y232]",
    "target.entity": "AncSZ",
    "phosphorylation enrichment": 0.85
  },
  {
    "sequence.record": "VRQQVYKKVEE [HADHA_Y283]",
    "target.entity": "AncSZ",
    "phosphorylation enrichment": 0.617
  },
  {
    "sequence.record": "CTTIHYMYMCN [TP53_Y234_N235M]",
    "target.entity": "AncSZ",
    "phosphorylation enrichment": 1.06
  },
  {
    "sequence.record": "GELQGYDIMEP [MSH2_Y863_S860L]",
    "target.entity": "AncSZ",
    "phosphorylation enrichment": 1.23
  },
  {
    "sequence.record": "LPPREYVVVPS [CAPN1_Y494_G492R]",
    "target.entity": "AncSZ",
    "phosphorylation enrichment": 2.29
  },
  {
    "sequence.record": "EIRTQYEVMAS [GFAP_Y242_A244V]",
    "target.entity": "AncSZ",
    "phosphorylation enrichment": 0.74
  },
  {
    "sequence.record": "SDQPDYDSVAS [GIT2_Y392_N387S]",
    "target.entity": "AncSZ",
    "phosphorylation enrichment": 1.29
  },
  {
    "sequence.record": "IGHGSYAKVLL [PRKCZ_Y263_R260H]",
    "target.entity": "AncSZ",
    "phosphorylation enrichment": 0.728
  },
  {
    "sequence.record": "FNVLQYVVPKV [EIF3A_Y382_E386K]",
    "target.entity": "AncSZ",
    "phosphorylation enrichment": 0.832
  },
  {
    "sequence.record": "QAPPVYLDVLG [NTRK1_Y791]",
    "target.entity": "AncSZ",
    "phosphorylation enrichment": 1.17
  },
  {
    "sequence.record": "FLTQHYDAKPQ [ANG_Y38]",
    "target.entity": "AncSZ",
    "phosphorylation enrichment": 0.732
  },
  {
    "sequence.record": "SLIERYEPSET [PLCD1_Y258]",
    "target.entity": "AncSZ",
    "phosphorylation enrichment": 1.07
  },
  {
    "sequence.record": "VFLGAYDCFLP [SLC22A5_Y486_R488C_YF]",
    "target.entity": "AncSZ",
    "phosphorylation enrichment": 1.6
  },
  {
    "sequence.record": "RYVSRYIYNRE [HLA-DQB1_Y62_T60S]",
    "target.entity": "AncSZ",
    "phosphorylation enrichment": 1.29
  },
  {
    "sequence.record": "NKFTTYLPRLP [C9orf24_Y126_YF]",
    "target.entity": "AncSZ",
    "phosphorylation enrichment": 0.568
  },
  {
    "sequence.record": "RAMPVYEKAEH [TP63_Y231_K232E]",
    "target.entity": "AncSZ",
    "phosphorylation enrichment": 0.664
  }
]

FYI, the data here is from the supplement of paper PMC10065799.
